Origin of values: patent US4377581A

Experiment: Water solubility
Assay type: physicochemical
Details: Example 10 table; hydrochloride salts except as otherwise noted; solvent not given; read-out: Solubility
reported_endpoint: solubility (mg/mL)

Please review the entries below; each comes with its answer.
# molecule, solubility, mg/mL
records = [
    ("CCCCCOC(=O)N1CCN(c2nc(N)c3ccc(OC)c(OC)c3n2)CC1", 40),
    ("COc1ccc2c(N)nc(N3CCN(C(=O)OCCC(C)C)CC3)nc2c1OC", 25),
    ("COc1ccc2c(N)nc(N3CCN(C(=O)OCC(C)C)CC3)nc2c1OC", 40),
]

P = COC(=O)N1CCN(c2nc(N)c3ccc(OC)c(OC)c3n2)CC1
Q = COc1ccc2c(N)nc(N3CCN(c4cccc(C(F)(F)F)c4)CC3)nc2c1OC
Task: Sorting by solubility in descending order, would P or Q appear first? Indicate your choice by writing its label.
Output: P
